- methodDescription: in vitro
- experimentalContext: human
endpoint: CC50 at 6 days (µM)
Hi! Could you send only the number? It should be in µM, unit omitted.

Fill blank: measured CC50 at 6 days of the compound Cc1nccnc1/C=C/[C@@]1(C)C[C@@H](OC(=O)CSC2CCNCC2)[C@]2(C)[C@H](C)CC[C@]3(CCC(=O)[C@H]32)[C@@H](C)[C@@H]1O is ____. 22.4

All values here come from patent US12630524B2.
